Provenance of the data: patent US9670227B2

- target: Mcl-1 protein (UniProtKB primary accession number: Q07820) (Homo sapiens, UniProt Q07820)
- Sequence (Q07820 whole entry): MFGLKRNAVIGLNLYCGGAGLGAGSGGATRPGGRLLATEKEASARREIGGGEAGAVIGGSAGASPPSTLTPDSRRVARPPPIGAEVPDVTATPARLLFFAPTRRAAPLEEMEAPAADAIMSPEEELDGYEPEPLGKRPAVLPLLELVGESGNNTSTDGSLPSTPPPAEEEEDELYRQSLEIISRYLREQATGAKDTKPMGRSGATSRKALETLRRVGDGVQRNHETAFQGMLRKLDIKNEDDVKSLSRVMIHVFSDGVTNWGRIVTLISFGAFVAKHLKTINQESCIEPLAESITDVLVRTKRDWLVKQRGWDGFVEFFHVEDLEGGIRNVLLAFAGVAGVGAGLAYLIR
- measurement protocol: Inhibition of Mcl-1 by fluorescence polarisation, Method 1
- Assay type: binding
- test parameters: fluorescence polarisation; Method 1, or Method 2; read-out: IC50 (M) Mcl-1 FP
assay metric: IC50 (M)

molecule	unit of measurement	experimental result
CC#Cc1sc2ncnc(OC(Cc3ccccc3OC)C(=O)O)c2c1-c1ccc(OCCN2CCOCC2)c(Cl)c1C (stereo not drawn)	M	1.2e-08
CC#Cc1sc2ncnc(O[C@H](Cc3ccccc3OC)C(=O)O)c2c1-c1cc(F)c(OC)c(Cl)c1C (single isomer, unassigned) [Example 470]	M	4.8e-07
COc1ccc(-c2sc3ncnc(OC(Cc4ccccc4OCc4ccnc(-c5ccccc5OC)n4)C(=O)O)c3c2-c2ccc(OCCN3CCN(C)CC3)c(Cl)c2C)cc1 (single isomer, unassigned) [Example 760]	M	1.18e-09

* * *

Some compounds, each annotated with its measured log10 of IC50.
- target: Mcl-1 protein (UniProtKB primary accession number: Q07820) (Homo sapiens, UniProt Q07820)
- measurement protocol: Inhibition of Mcl-1 by fluorescence polarisation, Method 1
- Assay type: binding
- test parameters: fluorescence polarisation test; Method 2 values are underlined in the patent (underlining not visible here); read-out: IC50 (M) Mcl-1 FP
assay metric: log10 of IC50 (log10 of the value in M)

compound	assay metric	experimental result
Cc1c(-c2c(-c3ccc(F)o3)sc3ncnc(OC(Cc4ccccc4OCC(=O)NCc4ccccc4)C(=O)O)c23)ccc(OCCN2CCN(C)CC2)c1Cl (stereo not drawn) [Example 153]	log10 of IC50	-8.30
CCCn1nccc1COc1ccccc1CC(Oc1ncnc2sc(-c3ccc(F)cc3)c(-c3ccc(OCCN4CCN(C)CC4)c(Cl)c3C)c12)C(=O)O (stereo not drawn) [Example 81]	log10 of IC50	-8.12
Cc1c(-c2c(-c3ccc(F)cc3)sc3ncnc(OC(Cc4ccccc4OCc4cnccn4)C(=O)O)c23)ccc(OCCN2CCOCC2)c1Cl (stereo not drawn) [Example 148]	log10 of IC50	-7.51
Cc1c(-c2c(-c3ccc(F)cc3)sc3ncnc(OC(Cc4ccccc4OCc4ccnc(-c5ccccc5F)n4)C(=O)O)c23)ccc(OCCN2CCN(C)CC2)c1Cl (stereo not drawn) [Example 114]	log10 of IC50	-8.68
Cc1c(-c2c(-c3ccc(F)o3)sc3ncnc(OC(Cc4ccccc4OCc4cnccn4)C(=O)O)c23)ccc(OCCN(C)C)c1Cl (stereo not drawn) [Example 206]	log10 of IC50	-8.10
COCCOc1ccccc1CC(Oc1ncnc2sc(-c3ccco3)c(-c3ccc(OCCN4CCN(C)CC4)c(Cl)c3C)c12)C(=O)O (stereo not drawn) [Example 290]	log10 of IC50	-8.24

* * *

- target: Mcl-1 protein (UniProtKB primary accession number: Q07820) (Homo sapiens, UniProt Q07820)
- measurement protocol: Inhibition of Mcl-1 by fluorescence polarisation, Method 1
- Assay type: binding
- test parameters: fluorescence polarisation test; Method 2 values are underlined in the patent (underlining not visible here); read-out: IC50 (M) Mcl-1 FP
Some compounds, each annotated with its measured IC50.
assay metric: IC50 (M)

compound	experimental result
Cc1c(-c2c(-c3ccc(F)o3)sc3ncnc(OC(Cc4ccccc4OCc4ccccn4)C(=O)O)c23)ccc(OCCN2CCN(C)CC2)c1Cl (single isomer, unassigned) [Example 166]	6e-09
COc1ccccc1CC(Oc1ncnc2sc(-c3ccco3)c(-c3ccc(OC4CCNC4)c(Cl)c3C)c12)C(=O)O (single isomer, unassigned) [Example 305]	6.9e-08
Cc1c(-c2c(-c3ccc(F)cc3)sc3ncnc(OC(Cc4ccccc4OCc4ccnc(CC(C)C)n4)C(=O)O)c23)ccc(OCCN2CCN(C)CC2)c1Cl (stereo not drawn)	1.9e-09
CCOc1nccc(COc2ccccc2CC(Oc2ncnc3sc(-c4ccc(F)o4)c(-c4ccc(OCCN5CCN(C)CC5)c(Cl)c4C)c23)C(=O)O)n1 (stereo not drawn)	2.8e-09
Cc1c(-c2c(-c3ccc(F)cc3)sc3ncnc(OC(Cc4ccccc4OCc4cnccn4)C(=O)O)c23)ccc(OCCCC2CCCN2C)c1Cl (stereo not drawn)	3.5e-08
Cc1c(-c2c(-c3ccc(F)o3)sc3ncnc(OC(Cc4ccccc4OCc4ccnc(C(F)(F)F)n4)C(=O)O)c23)ccc(OCCN2CCN(C)CC2)c1Cl (stereo not drawn)	9e-09

* * *

- target: Mcl-1 protein (UniProtKB primary accession number: Q07820) (Homo sapiens, UniProt Q07820)
- measurement protocol: Inhibition of Mcl-1 by fluorescence polarisation, Method 1
- Format: binding
- test parameters: fluorescence polarisation test; Method 2 values are underlined in the patent (underlining not visible here); read-out: IC50 (M) Mcl-1 FP
- Description: The relative binding potency of each compound was determined via Fluorescence Polarisation (FP). An 11 point serial dilution of each compound was prepared in DMSO and 2 μl transferred into flat bottomed, low binding, 384-well plate (final DMSO concentration 5%). […]
Some molecules, each annotated with its measured IC50.
assay metric: IC50 (M)

> print(dat)
                                   molecule                                    target  assay.metric  experimental.result
1  CCCCNC(=O)COc1ccccc1CC(Oc1ncnc2sc(-c3ccc(F)o3)c(-c3ccc(OCCN4CCN(C)CC4)c(Cl)c3C)c12)C(=O)O (stereo not drawn)  Mcl-1 protein (UniProtKB primary accession number: Q07820) (Homo sapiens, UniProt Q07820)          IC50                7e-09
2  Cc1c(-c2c(-c3ccc(F)cc3)sc3ncnc(OC(Cc4ccccc4OCc4cnccn4)C(=O)O)c23)ccc(OCCCN(C)C)c1Cl (stereo not drawn)  Mcl-1 protein (UniProtKB primary accession number: Q07820) (Homo sapiens, UniProt Q07820)          IC50              2.4e-08
3  Cc1c(-c2c(-c3ccc(F)o3)sc3ncnc(OC(Cc4ccccc4OCc4ccc(F)cn4)C(=O)O)c23)ccc(OCCN2CCN(C)CC2)c1Cl (stereo not drawn)  Mcl-1 protein (UniProtKB primary accession number: Q07820) (Homo sapiens, UniProt Q07820)          IC50              1.2e-08
4  Cc1c(-c2c(-c3ccc(Cl)o3)sc3ncnc(OC(Cc4ccccc4OCc4cnccn4)C(=O)O)c23)ccc(OCCN2CCN(C)CC2)c1Cl (stereo not drawn)  Mcl-1 protein (UniProtKB primary accession number: Q07820) (Homo sapiens, UniProt Q07820)          IC50              9.2e-09
5  Cc1c(-c2c(-c3ccc(F)o3)sc3ncnc(OC(Cc4ccccc4OCCO)C(=O)O)c23)ccc(OCCN2CCN(C)CC2)c1Cl (stereo not drawn)  Mcl-1 protein (UniProtKB primary accession number: Q07820) (Homo sapiens, UniProt Q07820)          IC50              5.4e-09
6  CCCCc1nccc(COc2ccccc2CC(Oc2ncnc3sc(-c4ccc(F)cc4)c(-c4ccc(OCCN5CCN(C)CC5)c(Cl)c4C)c23)C(=O)O)n1 (stereo not drawn)  Mcl-1 protein (UniProtKB primary accession number: Q07820) (Homo sapiens, UniProt Q07820)          IC50              3.2e-09

* * *

- Test system: H929 multiple myeloma tumour line
- measurement protocol: In vitro cytotoxicity, Microculture Tetrazolium Assay
- Type: cell-based
- test parameters: Homo sapiens, NCI-H929, 48 h, H929 cells, 48 hours exposure, MTT; read-out: IC50 (μM) MTT H929
Some compounds, each annotated with its measured IC50.
assay metric: IC50 (µM)

> print(dat)
                                    compound  assay.metric  experimental.result
 1  Cc1nccc(COc2ccccc2CC(Oc2ncnc3sc(-c4ccco4)c(-c4ccc(OCCN5CCN(C)CC5)c(Cl)c4C)c23)C(=O)O)n1 (stereo not drawn)          IC50                0.022
 2  COCCSc1nccc(COc2ccccc2CC(Oc2ncnc3sc(-c4ccc(F)cc4)c(-c4ccc(OCCN5CCN(C)CC5)c(Cl)c4C)c23)C(=O)O)n1 (stereo not drawn)          IC50                 0.03
 3  COc1cc(F)cc(-c2sc3ncnc(OC(Cc4ccccc4OC)C(=O)O)c3c2-c2ccc(OCCN3CCN(C)CC3)c(Cl)c2C)c1 (stereo not drawn)          IC50                0.334
 4  CCN1CCN(CCOc2ccc(-c3c(-c4ccc(F)cc4)sc4ncnc(OC(Cc5ccccc5OCc5ccnc(-c6ccccc6F)n5)C(=O)O)c34)c(C)c2Cl)CC1 (stereo not drawn)          IC50                0.003
 5  Cc1c(-c2c(-c3ccc(F)o3)sc3ncnc(OC(Cc4ccccc4OCc4ccnn4C4CCCC4)C(=O)O)c23)ccc(OCCN2CCN(C)CC2)c1Cl (stereo not drawn)          IC50                0.012
 6  Cc1c(-c2c(-c3ccco3)sc3ncnc(OC(Cc4ccccc4OCc4nccc5ccccc45)C(=O)O)c23)ccc(OCCN2CCN(C)CC2)c1Cl (stereo not drawn)          IC50                 1.79
 7  COc1ccccc1-n1nccc1COc1ccccc1CC(Oc1ncnc2sc(-c3ccc(F)cc3)c(-c3ccc(OCCN4CCN(C)CC4)c(Cl)c3C)c12)C(=O)O (stereo not drawn)          IC50                0.103
 8  COc1cc(COc2ccccc2CC(Oc2ncnc3sc(-c4ccc(F)cc4)c(-c4ccc(OCCN5CCN(C)CC5)c(Cl)c4C)c23)C(=O)O)ccn1 (stereo not drawn)          IC50                0.162
 9  CCOc1cccc(COc2ccccc2CC(Oc2ncnc3sc(-c4ccc(F)cc4)c(-c4ccc(OCCN5CCN(C)CC5)c(Cl)c4C)c23)C(=O)O)n1 (stereo not drawn)          IC50                0.146
10  CCCCn1nccc1COc1ccccc1CC(Oc1ncnc2sc(-c3ccc(F)nc3)c(-c3ccc(OCCN4CCN(C)CC4)c(Cl)c3C)c12)C(=O)O (stereo not drawn)          IC50                 0.04
11  COc1ccc(COc2ccccc2CC(Oc2ncnc3sc(-c4cccc(F)c4)c(-c4ccc(OCCN5CCN(C)CC5)c(Cl)c4C)c23)C(=O)O)cc1 (stereo not drawn)          IC50                0.384
12  COc1ccccc1CC(Oc1ncnc2sc(-c3cc(F)cc(F)c3)c(-c3ccc(OCCN4CCN(C)CC4)c(Cl)c3C)c12)C(=O)O (stereo not drawn)          IC50                0.272
